# Tested Target: T1, human PD-1 (#PD1-H82E4, AcroBiosystems) (human, UniProt Q15116 25-167)
# T1 construct: bought
# T1 sequence (Q15116 25-167 limits assumed): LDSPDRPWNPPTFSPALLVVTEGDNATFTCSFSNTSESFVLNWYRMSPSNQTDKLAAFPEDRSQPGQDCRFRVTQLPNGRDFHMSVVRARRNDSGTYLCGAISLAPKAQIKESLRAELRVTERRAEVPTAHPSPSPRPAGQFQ
# Assay Summary: SPR, PD-1 on captured IgG1
Reported Property: kon (M⁻¹ s⁻¹)

Binder	Recorded Result
JZW468 (antibody, human IgG1, V domains shown, human IgG1) VH: EVQLLESGGGLVQPGGSLRLSCAASGFTFSINAMTWVRQAPGKGLEWVSTISGSGFSTYYADSLKGRFTISRDNSKNTLYLQMNSLRAEDTAVYYCAKEVYGDYWGQGTLVTVSS VL: RSVLTQPPSASGTPGQRVSISCSGASSNIGSQSVFWYQQLPGTAPKLLIYSNNQRPSGVPDRFSGSKSGTSASLAISGLRSEDEADYYCAAWDDQLSIWVFGGGTKLTVL	146000
21A08Ap1 (antibody, human IgG1, V domains shown, human IgG1; also called anti-PD-1 antibody clone 21A08Ap1) VH: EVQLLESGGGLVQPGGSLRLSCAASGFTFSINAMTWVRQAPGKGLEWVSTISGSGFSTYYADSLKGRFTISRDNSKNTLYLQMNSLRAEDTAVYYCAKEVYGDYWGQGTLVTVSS VL: RSVLTQPPSASGTPGQRVSISCSGASSNIGSQSVFWYQQLPGTAPKLLIYSNNQRPSGVPDRFSGSKSGTSASLAISGLRSEDEADYYCAAWDDSLSIWVFGGGTKLTVL	86800
